B1: CLINT1 (parent)
chain: VVTSAREHIYDLRSLENYHFVDEH

# Variants of: B1
# PROCEDURE_DETAILS: protein stability index of a GFP-peptide fusion (GPS, HEK-293T) (PSI 1-6); higher = more stable;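 also: lentivirally expressed fusions sorted by FACS into six bins by GFP to DsRed ratio, PSI derived from sequencing read proportions per bin multiplied by bin number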
# EXPERIMENTAL_CONTEXT: c terminus: a fixed tail appended
Class assignment keyed on protein stability index, ranges low range (below 2), mid range (2 to below 3), high range (3 or more)

[Q] Class for `I9V` ?
[A] high range

[Q] Class for `Y18Q` ?
[A] high range

[Q] Class for `D11R` ?
[A] mid range

[Q] Class for `E23V` ?
[A] mid range

[Q] Class for `D11L` ?
[A] mid range

[Q] Class for `H19K` ?
[A] high range

[Q] Class for `H19W` ?
[A] low range

[Q] Class for `E7F` ?
[A] low range

[Q] Class for `A5G` ?
[A] high range

[Q] Class for `Y18K` ?
[A] high range

[Q] Class for `E23H` ?
[A] mid range
